- TEST: Metabolic stability in human liver microsomes
- CONDITION_SET: both, liver microsomes (pooled), pH 7.4, kel, Table S6, 1st batch
Measured log10 of k el at 2 µM accompanies every entry in the list below.
RECORDED_ENDPOINT: log10 of k el at 2 µM (log10 of the value in s⁻¹)

INSERT INTO assay_data (molecule, data_value) VALUES
  ('O=C(NC1CC2CC1(c1ccc(Cl)cc1)C2)c1cccnc1Cl (centres unmarked)', -3.70),
  ('Cn1cc(C(=O)NC2CC3CC2(c2ccc(Cl)c(Cl)c2)C3)c(C(F)F)n1 (centres unmarked)', -3.60),
  ('Cc1nc2c([nH]1)CCN(C(=O)c1ccc(NC(=O)C3CC4CC3(c3ccccc3)C4)cc1)c1ccccc1-2 (centres unmarked)', -4.08),
  ('Cn1cc(C(=O)NC2CC3CC2(c2cc(F)c(F)c(F)c2)C3)c(C(F)F)n1 (centres unmarked)', -3.38),
  ('O=C(NC1CCN(CCCCC2(C(=O)NCC(F)(F)F)c3ccccc3-c3ccccc32)CC1)C1CC2CC1(c1ccc(C(F)(F)F)cc1)C2 (centres unmarked)', -2.89);

====

- TEST: Metabolic stability in human liver microsomes
- CONDITION_SET: both, human liver microsomes (pooled), pH 7.4, % Remaining, Mean of 2, 7 min, Table S9, 4st batch
RECORDED_ENDPOINT: remaining at […], 2 µM (%)

INSERT INTO assay_data (compound, recorded_endpoint, data_value) VALUES
  ('Cn1cc(C(=O)Nc2ccc(F)cc2-c2ccc(Cl)c(Cl)c2)c(C(F)F)n1', 'remaining at […], 2 µM', 105);

====

Measured microsomal CLint at 2 μM accompanies every entry in the list below.
- TEST: Metabolic stability in human liver microsomes
- CONDITION_SET: both, human liver microsomes (pooled), pH 7.4
RECORDED_ENDPOINT: microsomal CLint at 2 μM (µL/min/mg)

INSERT INTO results (compound, data_value) VALUES
  ('Cc1nc2c([nH]1)CCN(C(=O)c1ccc(NC(=O)C3CC4CC3(c3ccccc3)C4)cc1)c1ccccc1-2 (stereo not drawn)', 12),
  ('O=C(NC1CC2CC1(c1ccc(Cl)cc1)C2)c1cccnc1Cl (stereo not drawn)', 29);

====

- TEST: physchem
- CONDITION_SET: pH 7.4, LogD, pH 7.4
Measured logD at 1 h accompanies every entry in the list below.
RECORDED_ENDPOINT: logD at 1 h

INSERT INTO results (molecule, data_value) VALUES
  ('O=C(NC1CC2CC1(c1ccc(Cl)cc1)C2)c1cccnc1Cl (centres unmarked)', 3.58),
  ('Cc1nc2c([nH]1)CCN(C(=O)c1ccc(NC(=O)C3CC4CC3(c3ccccc3)C4)cc1)c1ccccc1-2 (centres unmarked)', 3.98),
  ('Cc1nc2c([nH]1)-c1ccccc1N(C(=O)c1ccc(NC(=O)c3ccccc3-c3ccccc3)cc1)CC2', 4.3),
  ('COC(=O)Nc1nc2ccc(C(=O)c3ccccc3)cc2[nH]1', 2.82),
  ('O=C(NC1CCN(CCCCC2(C(=O)NCC(F)(F)F)c3ccccc3-c3ccccc32)CC1)C1CC2CC1(c1ccc(C(F)(F)F)cc1)C2 (centres unmarked)', 3.89),
  ('Cn1cc(C(=O)NC2CC3CC2(c2cc(F)c(F)c(F)c2)C3)c(C(F)F)n1 (centres unmarked)', 3.61),
  ('Cn1cc(C(=O)Nc2ccc(F)cc2-c2ccc(Cl)c(Cl)c2)c(C(F)F)n1', 4.09),
  ('Cn1cc(C(=O)NC2CC3CC2(c2ccc(Cl)c(Cl)c2)C3)c(C(F)F)n1 (centres unmarked)', 4.1);

====

- Tested on: Aspergillus niger (strain VURV-F 822)
- TEST: Antifungal disk diffusion method
- Assay type: cell-based
- CONDITION_SET: Concentration 0.5 mg/mL, 10 μl per disk, read-out: Diameter of inhibition zone
Measured zone of inhibition at 500 µg/mL accompanies every entry in the list below.
RECORDED_ENDPOINT: zone of inhibition at 500 µg/mL (mm)

INSERT INTO measurements (compound, recorded_endpoint, reading_unit, data_value) VALUES
  ('Cn1cc(C(=O)NC2CC3CC2(c2cc(F)c(F)c(F)c2)C3)c(C(F)F)n1 (stereo not drawn)', 'zone of inhibition at 500 µg/mL', 'mm', 13.8),
  ('O=C(NC1CC2CC1(c1ccc(Cl)cc1)C2)c1cccnc1Cl (stereo not drawn)', 'zone of inhibition at 500 µg/mL', 'mm', 10.5),
  ('Cn1cc(C(=O)Nc2ccc(F)cc2-c2ccc(Cl)c(Cl)c2)c(C(F)F)n1', 'zone of inhibition at 500 µg/mL', 'mm', 32.8),
  ('O=C(Nc1ccccc1-c1ccc(Cl)cc1)c1cccnc1Cl', 'zone of inhibition at 500 µg/mL', 'mm', 26),
  ('Cn1cc(C(=O)NC2CC3CC2(c2ccc(Cl)c(Cl)c2)C3)c(C(F)F)n1 (stereo not drawn)', 'zone of inhibition at 500 µg/mL', 'mm', 12.5),
  ('Cn1cc(C(=O)Nc2ccccc2-c2cc(F)c(F)c(F)c2)c(C(F)F)n1', 'zone of inhibition at 500 µg/mL', 'mm', 34.5);

====

- CONDITION_SET: Table S5, injection 2, octanol/PBS pH 7.4
Measured D accompanies every entry in the list below.
RECORDED_ENDPOINT: D

INSERT INTO assay_data (compound, data_value) VALUES
  ('Cn1cc(C(=O)NC2CC3CC2(c2ccc(Cl)c(Cl)c2)C3)c(C(F)F)n1 (stereo not drawn)', '1.38E+04'),
  ('O=C(NC1CC2CC1(c1ccc(Cl)cc1)C2)c1cccnc1Cl (stereo not drawn)', '3.81E+03'),
  ('Cn1cc(C(=O)Nc2ccccc2-c2cc(F)c(F)c(F)c2)c(C(F)F)n1', '2.99E+03');

====

Measured zone of inhibition at 4 µg/mL accompanies every entry in the list below.
- System: Aspergillus niger (strain VURV-F 822)
- TEST: Antifungal disk diffusion method
- Format: cell-based
- CONDITION_SET: Concentration 0.004 mg/mL, 0 = absence of antifungal activity, Boscalid, Fluxapyroxad, Bixafen marked st, read-out: Diameter of inhibition zone
RECORDED_ENDPOINT: zone of inhibition at 4 µg/mL (mm)

INSERT INTO results (molecule, recorded_endpoint, reading_unit, data_value) VALUES
  ('Cn1cc(C(=O)Nc2ccc(F)cc2-c2ccc(Cl)c(Cl)c2)c(C(F)F)n1', 'zone of inhibition at 4 µg/mL', 'mm', 9),
  ('O=C(NC1CC2CC1(c1ccc(Cl)cc1)C2)c1cccnc1Cl (stereo not drawn)', 'zone of inhibition at 4 µg/mL', 'mm', 0),
  ('O=C(Nc1ccccc1-c1ccc(Cl)cc1)c1cccnc1Cl', 'zone of inhibition at 4 µg/mL', 'mm', 7.5),
  ('Cn1cc(C(=O)NC2CC3CC2(c2cc(F)c(F)c(F)c2)C3)c(C(F)F)n1 (stereo not drawn)', 'zone of inhibition at 4 µg/mL', 'mm', 0),
  ('Cn1cc(C(=O)NC2CC3CC2(c2ccc(Cl)c(Cl)c2)C3)c(C(F)F)n1 (stereo not drawn)', 'zone of inhibition at 4 µg/mL', 'mm', 0),
  ('Cn1cc(C(=O)Nc2ccccc2-c2cc(F)c(F)c(F)c2)c(C(F)F)n1', 'zone of inhibition at 4 µg/mL', 'mm', 8);

====

- TEST: Metabolic stability in human liver microsomes
- CONDITION_SET: both, human liver microsomes (pooled), pH 7.4, % Remaining, Mean of 2, 25 min, Table S9, 4st batch
RECORDED_ENDPOINT: remaining at 25 min, 2 µM (%)

INSERT INTO measurements (molecule, data_value) VALUES
  ('Cn1cc(C(=O)Nc2ccc(F)cc2-c2ccc(Cl)c(Cl)c2)c(C(F)F)n1 [Bixafen, bixafen]', 93);

====

- TEST: in vitro
- CONDITION_SET: both, human, pH 7.4, kel
RECORDED_ENDPOINT: k el at 2 μM (s⁻¹)

INSERT INTO assay_data (compound, reading_unit, data_value) VALUES
  ('O=C(O)Cc1ccccc1Nc1c(Cl)cccc1Cl [Diclofenac]', 's⁻¹', 0.00123);

====

- TEST: Kinetic solubility in phosphate-buffered saline, pH 7.4
- Assay type: physicochemical
- CONDITION_SET: 25 °C, pH 7.4, aqueous buffer, kinetic from dmso stock, PBS solubility, pH 7.4, Mean
RECORDED_ENDPOINT: solubility at 2 h (µM)

INSERT INTO measurements (molecule, reading_unit, data_value) VALUES
  ('O=C(NC1CCN(CCCCC2(C(=O)NCC(F)(F)F)c3ccccc3-c3ccccc32)CC1)C1CC2CC1(c1ccc(C(F)(F)F)cc1)C2 (stereo not shown)', 'µM', 18),
  ('Cc1nc2c([nH]1)CCN(C(=O)c1ccc(NC(=O)C3CC4CC3(c3ccccc3)C4)cc1)c1ccccc1-2 (stereo not shown)', 'µM', 14),
  ('Cc1nccn1CC1CCc2c(c3ccccc3n2C)C1=O (stereo not shown) [Ondansetron, reference compound]', 'µM', 126),
  ('Cc1nc2c([nH]1)-c1ccccc1N(C(=O)c1ccc(NC(=O)c3ccccc3-c3ccccc3)cc1)CC2', 'µM', 5);
